Tested on: Colo205 colon adenocarcinoma cell line
Assay: MTT cytotoxicity assay on doxorubicin-sensitive Colo205 cells
Type: cell-based, human
Conditions: Homo sapiens, COLO 205; MTT, 24 h, single experiment; read-out: IC50 Colo205, parallel experiment 2
Description: The doxorubicin-sensitive Colo205 (ATCC-CCL-222) and the doxorubicin-resistant ABCB1- and LRP-expressing Colo320/MDR-LRP (ATCC-CCL-220.1) human colon adenocarcinoma cell lines were obtained from LGC Promochem in Teddington, UK. […] The effects of increasing concentrations of the compounds on cell growth were tested in 96-well flat-bottomed microtiter plates. […] The selectivity indexes (SI) were calculated as the ratio of the IC50 value in the non-tumor cells and the IC50 value in the cancer cell lines. […]
property_label: IC50 (µM)
Provide the reading as a plain figure in µM.

Please report the measured IC50 for CCOC(=O)C(c1cc(Cl)c2cccnc2c1O)c1c[nH]c2ncccc12 (stereo not shown)
7.42

Give reported IC50 value for CCOC(=O)C(c1cc(Cl)c2cccnc2c1O)N1CCOCC1 (stereo not shown)
2.06

State its IC50: COc1cccc2c1C(=O)c1c(O)c3c(c(O)c1C2=O)C[C@@](O)(C(=O)CO)C[C@@H]3O[C@H]1C[C@H](N)[C@H](O)[C@H](C)O1 [DOX, Doxorubicin, reference compound]
0.89

Answer with the recorded IC50 of Oc1c(Cc2c[nH]c3ncccc23)cc(Cl)c2cccnc12 only.
39.4

----------
Tested on: Colo205 colon adenocarcinoma cell line
Test: MTT cytotoxicity assay on doxorubicin-sensitive Colo205 cells
Assay type: cell-based, human
Settings: Homo sapiens, COLO 205; MTT, 24 h incubation, average of 3 parallel experiments; read-out: IC50 Colo205 AV ± SD
Measured IC50 values are reported for all entries that follow.
Expressed in µM, but write only the number.

Previously resolved entries follow.
{"compound": "Oc1c(C(c2ccccc2)c2c[nH]c3ccccc23)cc(Cl)c2cccnc12 (centres unmarked) [Compound 14]", "test_target": "Colo205 colon adenocarcinoma cell line", "numeric_readout": 2.53}
{"compound": "CCOC(=O)C(c1cc(Cl)c2cccnc2c1O)N1CCOCC1 (centres unmarked) [Compound 10]", "test_target": "Colo205 colon adenocarcinoma cell line", "numeric_readout": 2.05}
{"compound": "CCOC(=O)C(c1cc(Cl)c2cccnc2c1O)c1c[nH]c2ncccc12 (centres unmarked) [Compound 12]", "test_target": "Colo205 colon adenocarcinoma cell line", "numeric_readout": 8.11}

Supply recorded IC50 for Oc1c(Cc2c[nH]c3ccccc23)cc(Cl)c2cccnc12 [Compound 16] here.
13.1

----------
System: Colo205 colon adenocarcinoma cell line
Test: MTT cytotoxicity assay on doxorubicin-sensitive Colo205 cells
Assay type: cell-based, human
Settings: Homo sapiens, COLO 205; MTT, 24 h incubation, average of 3 parallel experiments; read-out: IC50 Colo205 AV ± SD
# pIC50 per record follows
A value of pIC50 is the negative decimal logarithm of a concentration given in moles per litre.

Completed entries (count: 2):
{"molecule": "CCOC(=O)C(c1cc(Cl)c2cccnc2c1O)c1c[nH]c2ccccc12 (stereo not shown)", "pIC50": 5.31}
{"molecule": "COc1cccc2c1C(=O)c1c(O)c3c(c(O)c1C2=O)C[C@@](O)(C(=O)CO)C[C@@H]3O[C@H]1C[C@H](N)[C@H](O)[C@H](C)O1 [DOX, Doxorubicin, reference compound]", "pIC50": 6.07}

Lab note: next molecule to report on.
Query pIC50 for Oc1c(Cc2c[nH]c3ncccc23)cc(Cl)c2cccnc12
4.41

----------
Below is a list of entries, each paired with its recorded IC50 value.
Tested on: Colo205 colon adenocarcinoma cell line
Experiment: MTT cytotoxicity assay on doxorubicin-sensitive Colo205 cells
Format: cell-based, human
Settings: Homo sapiens, COLO 205; MTT, 24 h, single experiment; read-out: IC50 Colo205, parallel experiment 3
The reply should be a number in µM, with the unit left off.

{"molecule": "Oc1c(Cc2c[nH]c3ncccc23)cc(Cl)c2cccnc12", "property_label": "IC50", "numeric_readout": 40.4}
{"molecule": "COc1cccc2c1C(=O)c1c(O)c3c(c(O)c1C2=O)C[C@@](O)(C(=O)CO)C[C@@H]3O[C@H]1C[C@H](N)[C@H](O)[C@H](C)O1 [DOX, Doxorubicin, reference compound]", "property_label": "IC50", "numeric_readout": 0.81}
{"molecule": "CCOC(=O)C(c1cc(Cl)c2cccnc2c1O)c1c[nH]c2ccccc12 (stereo not shown)", "property_label": "IC50", "numeric_readout": 4.42}
{"molecule": "Oc1c(Cc2c[nH]c3ccccc23)cc(Cl)c2cccnc12", "property_label": "IC50", "numeric_readout": 12.3}
{"molecule": "CCOC(=O)C(c1cc(Cl)c2cccnc2c1O)c1c[nH]c2ncccc12 (stereo not shown)", "property_label": "IC50", "numeric_readout": 8.84}

Please respond with reported IC50 (system Colo205 colon adenocarcinoma cell line) for Oc1c(C(c2ccccc2)c2c[nH]c3ccccc23)cc(Cl)c2cccnc12 (stereo not shown) .
2.63

State measured IC50 of the molecule CCOC(=O)C(c1cc(Cl)c2cccnc2c1O)N1CCOCC1 (stereo not shown) with Colo205 colon adenocarcinoma cell line.
2.02

----------
System: Colo205 colon adenocarcinoma cell line
Assay: MTT cytotoxicity assay on doxorubicin-sensitive Colo205 cells
Assay type: cell-based, human
Settings: Homo sapiens, COLO 205; MTT, 24 h, single experiment; read-out: IC50 Colo205, parallel experiment 2
Quick reference: pIC50 of the listed items.
Please express pIC50 as -log10 of the molar concentration.

Below, 2 molecules whose answers are already recorded.
{"molecule": "CCOC(=O)C(c1cc(Cl)c2cccnc2c1O)c1c[nH]c2ccccc12 (stereo not drawn) [Compound 11]", "pIC50": 5.33}
{"molecule": "Oc1c(C(c2ccccc2)c2c[nH]c3ccccc23)cc(Cl)c2cccnc12 (stereo not drawn) [Compound 14]", "pIC50": 5.60}

# context switch: different molecule, same pIC50
Please indicate pIC50 recorded for Oc1c(Cc2c[nH]c3ccccc23)cc(Cl)c2cccnc12 [Compound 16]
4.87
